ASSAYED TARGET: Endothelin-converting enzyme 1 (Homo sapiens)
Sequence (P42892 whole entry): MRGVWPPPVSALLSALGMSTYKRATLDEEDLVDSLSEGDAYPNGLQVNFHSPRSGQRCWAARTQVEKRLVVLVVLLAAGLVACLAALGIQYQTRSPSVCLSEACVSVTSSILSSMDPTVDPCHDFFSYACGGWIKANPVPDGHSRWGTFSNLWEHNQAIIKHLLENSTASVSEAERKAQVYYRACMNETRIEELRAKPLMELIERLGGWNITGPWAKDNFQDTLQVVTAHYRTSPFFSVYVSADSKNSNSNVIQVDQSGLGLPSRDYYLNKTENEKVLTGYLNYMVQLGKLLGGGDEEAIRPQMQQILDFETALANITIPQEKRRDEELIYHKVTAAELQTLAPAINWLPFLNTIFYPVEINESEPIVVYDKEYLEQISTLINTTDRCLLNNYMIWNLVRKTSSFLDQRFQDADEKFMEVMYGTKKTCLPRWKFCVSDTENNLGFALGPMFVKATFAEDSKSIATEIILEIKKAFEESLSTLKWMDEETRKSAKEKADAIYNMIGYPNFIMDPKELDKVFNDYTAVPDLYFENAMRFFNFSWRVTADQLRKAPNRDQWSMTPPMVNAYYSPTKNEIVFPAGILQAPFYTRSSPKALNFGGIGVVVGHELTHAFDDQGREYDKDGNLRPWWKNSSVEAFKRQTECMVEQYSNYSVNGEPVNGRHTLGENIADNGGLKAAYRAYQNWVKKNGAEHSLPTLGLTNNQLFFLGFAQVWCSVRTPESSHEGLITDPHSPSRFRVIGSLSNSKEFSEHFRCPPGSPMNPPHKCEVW
EXPERIMENT NOTES: Inhibition activity towards human recombinant Endothelin-converting enzyme 1 (hECE-1c) expressed in Cos-7 cells
Type: cell-based
MEASUREMENT KIND: Ki (nM)

Request: Tell us which Ki value is on record for O=C(O)[C@H](Cc1c[nH]c2ccccc12)NC(=O)[C@H](CS)[C@H]1CCCc2ccccc21
Response: 250

(I) O=C(O)C(Cc1c[nH]c2ccccc12)NC(=O)C(CS)C1CCCc2ccccc21 (stereo not drawn)
(II) O=C(O)C(Cc1c[nH]c2ccccc12)NC(=O)C(CS)c1cccc(-c2ccccc2)c1 (stereo not drawn)
Request: Which one would you say has the larger Ki value: I , or II ? // respond with label for picked entry
Response: II
(II: 900 nM, I: 300 nM)

###

ASSAYED TARGET: Neprilysin (Oryctolagus cuniculus, UniProt P08049)
Sequence (P08049 whole entry): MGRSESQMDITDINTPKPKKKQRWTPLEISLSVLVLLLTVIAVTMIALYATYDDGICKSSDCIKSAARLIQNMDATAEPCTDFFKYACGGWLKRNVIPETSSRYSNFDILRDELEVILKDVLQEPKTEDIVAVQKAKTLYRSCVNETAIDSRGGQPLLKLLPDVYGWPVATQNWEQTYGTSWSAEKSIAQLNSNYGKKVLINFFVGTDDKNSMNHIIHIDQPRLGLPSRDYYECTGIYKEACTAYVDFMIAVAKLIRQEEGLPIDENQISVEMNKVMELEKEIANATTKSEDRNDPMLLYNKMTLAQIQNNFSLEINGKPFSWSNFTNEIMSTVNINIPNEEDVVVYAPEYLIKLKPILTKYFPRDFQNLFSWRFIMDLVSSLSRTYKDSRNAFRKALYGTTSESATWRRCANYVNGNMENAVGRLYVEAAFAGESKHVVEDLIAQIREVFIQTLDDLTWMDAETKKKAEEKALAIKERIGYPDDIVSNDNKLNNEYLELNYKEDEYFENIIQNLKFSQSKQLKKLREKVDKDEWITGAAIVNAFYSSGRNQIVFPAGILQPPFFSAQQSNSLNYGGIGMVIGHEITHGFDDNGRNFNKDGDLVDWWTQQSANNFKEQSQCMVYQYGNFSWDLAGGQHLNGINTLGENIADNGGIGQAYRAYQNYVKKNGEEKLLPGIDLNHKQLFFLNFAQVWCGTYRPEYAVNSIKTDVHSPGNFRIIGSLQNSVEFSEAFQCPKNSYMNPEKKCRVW
EXPERIMENT NOTES: Inhibition of neutral endopeptidase (NEP) isolated from rabbit kidney
pKi: −log10 of the molar value.
MEASUREMENT KIND: pKi

Example molecules with recorded pKi:
Request: Tell us which pKi value is on record for O=C(O)C(Cc1c[nH]c2ccccc12)NC(=O)C(CS)c1ccc(-c2ccccc2)cc1 (stereo not given)
Response: 6.87

Request: Tell us which pKi value is on record for C[C@H](c1ccccc1)[C@@H](CS)C(=O)N[C@@H](Cc1c[nH]c2ccccc12)C(=O)O
Response: 8.30

(A) O=C(O)C(Cc1c[nH]c2ccccc12)NC(=O)C(CS)C1CCc2ccccc21 (stereo not given)
(B) O=C(O)[C@H](Cc1c[nH]c2ccccc12)NC(=O)[C@@H](CS)[C@H]1CCCc2ccccc21
(C) C[C@H](c1ccc(-c2ccccc2)cc1)[C@@H](CS)C(=O)N[C@@H](Cc1c[nH]c2ccccc12)C(=O)O
Request: Hey, can you sort those molecules up there by pKi, smallest first? Give the labels in the order requested.
Response: C, B, A
(C: 8.30, B: 8.52, A: 8.74)

(1) O=C(O)[C@H](Cc1c[nH]c2ccccc12)NC(=O)[C@@H](CS)[C@H]1CCc2ccccc21
(2) CC(c1ccc2ccccc2c1)C(CS)C(=O)NC(Cc1c[nH]c2ccccc12)C(=O)O (stereo not given)
Request: Which one would you say has the larger pKi value: 1 , or 2 ? // respond with label for picked entry
Response: 1
(1: 8.68, 2: 8.27)

(A) C[C@@H](c1ccccc1)[C@H](CS)C(=O)N[C@@H](Cc1c[nH]c2ccccc12)C(=O)O
(B) O=C(O)C(Cc1c[nH]c2ccccc12)NC(=O)C(CS)C1CCCc2ccccc21 (stereo not given)
Request: Which one would you say has the larger pKi value: A , or B ? // respond with label for picked entry
Response: A
(A: 8.60, B: 8.35)

###

ASSAYED TARGET: Angiotensin-converting enzyme (Rattus norvegicus)
EXPERIMENT NOTES: Inhibition of Angiotensin I converting enzyme (ACE) purified from rat testis
MEASUREMENT KIND: Ki (nM)

Example compounds with recorded Ki:
Request: Tell us which Ki value is on record for O=C(O)[C@H](Cc1c[nH]c2ccccc12)NC(=O)[C@@H](CS)[C@@H]1CCc2ccccc21
Response: 41

Request: Tell us which Ki value is on record for C[C@@H](c1ccccc1)[C@H](CS)C(=O)N[C@@H](Cc1c[nH]c2ccccc12)C(=O)O
Response: 15

Request: Tell us which Ki value is on record for C[C@@H](c1ccc(-c2ccccc2)cc1)[C@H](CS)C(=O)N[C@@H](Cc1c[nH]c2ccccc12)C(=O)O
Response: 38

Request: Tell us which Ki value is on record for O=C(O)C(Cc1c[nH]c2ccccc12)NC(=O)C(CS)C1CCCc2ccccc21 (stereo not drawn)
Response: 18

Request: Tell us which Ki value is on record for CC(c1ccc2ccccc2c1)C(CS)C(=O)NC(Cc1c[nH]c2ccccc12)C(=O)O (stereo not drawn)
Response: 47

Request: Tell us which Ki value is on record for O=C(O)[C@H](Cc1c[nH]c2ccccc12)NC(=O)[C@H](CS)[C@@H]1CCCc2ccccc21
Response: 134

Request: Tell us which Ki value is on record for O=C(O)C(Cc1c[nH]c2ccccc12)NC(=O)C(CS)c1cccc(-c2ccccc2)c1 (stereo not drawn)
Response: 150

Request: Tell us which Ki value is on record for O=C(O)C(Cc1c[nH]c2ccccc12)NC(=O)C(CS)C1CCc2ccccc21 (stereo not drawn)
Response: 20

(1) CC(c1ccc(-c2ccccc2)cc1)C(CS)C(=O)N[C@@H](Cc1c[nH]c2ccccc12)C(=O)O (stereo partly drawn)
(2) O=C(N[C@@H](Cc1c[nH]c2ccccc12)C(=O)O)C(CS)[C@@H]1CCCc2ccccc21 (stereo partly drawn)
Request: Which one would you say has the larger Ki value: 1 , or 2 ? // respond with label for picked entry
Response: 1

(a) C[C@@H](c1ccc(-c2ccccc2)cc1)[C@@H](CS)C(=O)N[C@@H](Cc1c[nH]c2ccccc12)C(=O)O
(b) O=C(O)[C@H](Cc1c[nH]c2ccccc12)NC(=O)[C@@H](CS)[C@H]1CCCc2ccccc21
(c) O=C(O)C(Cc1c[nH]c2ccccc12)NC(=O)C(CS)c1ccc(-c2ccccc2)cc1 (stereo not drawn)
Request: List items by Ki in falling order. Give the labels in the order requested.
Response: a, c, b

###

ASSAYED TARGET: Angiotensin-converting enzyme (Rattus norvegicus, UniProt P47820)
Sequence (P47820 whole entry): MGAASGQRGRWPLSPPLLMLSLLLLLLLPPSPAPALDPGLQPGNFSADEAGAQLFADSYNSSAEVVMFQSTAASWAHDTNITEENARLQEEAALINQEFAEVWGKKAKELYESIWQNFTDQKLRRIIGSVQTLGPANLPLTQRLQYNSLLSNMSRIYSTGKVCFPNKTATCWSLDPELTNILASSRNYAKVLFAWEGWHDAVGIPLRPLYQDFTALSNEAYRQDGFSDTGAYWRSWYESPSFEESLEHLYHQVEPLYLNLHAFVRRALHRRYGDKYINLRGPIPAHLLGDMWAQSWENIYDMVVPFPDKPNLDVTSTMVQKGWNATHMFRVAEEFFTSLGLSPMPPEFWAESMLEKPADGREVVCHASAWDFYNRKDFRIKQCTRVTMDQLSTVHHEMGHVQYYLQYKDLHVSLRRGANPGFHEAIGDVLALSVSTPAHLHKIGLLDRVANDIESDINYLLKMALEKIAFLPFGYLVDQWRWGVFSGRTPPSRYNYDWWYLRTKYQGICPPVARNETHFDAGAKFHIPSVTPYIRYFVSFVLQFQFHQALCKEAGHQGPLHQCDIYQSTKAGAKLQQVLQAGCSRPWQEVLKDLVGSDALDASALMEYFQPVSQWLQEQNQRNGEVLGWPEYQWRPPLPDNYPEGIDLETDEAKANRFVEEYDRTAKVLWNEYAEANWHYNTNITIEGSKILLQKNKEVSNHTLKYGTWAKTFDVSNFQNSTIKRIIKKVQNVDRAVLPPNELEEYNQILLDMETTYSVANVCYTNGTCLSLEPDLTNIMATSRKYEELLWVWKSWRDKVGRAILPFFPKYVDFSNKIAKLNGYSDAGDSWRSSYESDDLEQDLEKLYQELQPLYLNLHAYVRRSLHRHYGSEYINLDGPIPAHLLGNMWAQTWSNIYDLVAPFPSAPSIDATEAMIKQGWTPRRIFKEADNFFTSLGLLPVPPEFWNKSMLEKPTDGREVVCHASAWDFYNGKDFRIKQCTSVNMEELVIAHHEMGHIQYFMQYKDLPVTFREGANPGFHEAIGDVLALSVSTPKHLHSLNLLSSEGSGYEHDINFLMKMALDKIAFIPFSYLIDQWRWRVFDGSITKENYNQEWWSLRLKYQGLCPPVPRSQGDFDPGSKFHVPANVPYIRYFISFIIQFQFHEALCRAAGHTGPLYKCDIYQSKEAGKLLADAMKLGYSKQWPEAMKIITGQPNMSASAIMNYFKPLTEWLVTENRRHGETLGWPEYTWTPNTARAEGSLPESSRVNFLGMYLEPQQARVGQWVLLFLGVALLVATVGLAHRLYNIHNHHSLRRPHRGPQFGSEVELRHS
EXPERIMENT NOTES: Inhibition of Angiotensin I converting enzyme (ACE) purified from rat testis
pKi: −log10 of the molar value.
MEASUREMENT KIND: pKi

Example compounds with recorded pKi:
Request: Tell us which pKi value is on record for CC(c1cccc2ccccc12)C(CS)C(=O)NC(Cc1c[nH]c2ccccc12)C(=O)O (stereo not given)
Response: 7.10

Request: Tell us which pKi value is on record for C[C@H](c1ccccc1)[C@H](CS)C(=O)N[C@@H](Cc1c[nH]c2ccccc12)C(=O)O
Response: 7.54

Request: Tell us which pKi value is on record for O=C(O)C(Cc1c[nH]c2ccccc12)NC(=O)C(CS)c1cccc2ccccc12 (stereo not given)
Response: 6.82

(1) C[C@H](c1ccc(-c2ccccc2)cc1)[C@@H](CS)C(=O)N[C@@H](Cc1c[nH]c2ccccc12)C(=O)O
(2) O=C(O)[C@H](Cc1c[nH]c2ccccc12)NC(=O)[C@@H](CS)[C@H]1CCc2ccccc21
Request: Which one would you say has the larger pKi value: 1 , or 2 ? // respond with label for picked entry
Response: 2

These measurements were taken from ChEMBL document CHEMBL1135904.
